tested.system: T1, human IL-23R endogenously expressed on DB cells (CRL-2289) (human, UniProt Q5VWK5 24-629)
T1 sequence (looked up): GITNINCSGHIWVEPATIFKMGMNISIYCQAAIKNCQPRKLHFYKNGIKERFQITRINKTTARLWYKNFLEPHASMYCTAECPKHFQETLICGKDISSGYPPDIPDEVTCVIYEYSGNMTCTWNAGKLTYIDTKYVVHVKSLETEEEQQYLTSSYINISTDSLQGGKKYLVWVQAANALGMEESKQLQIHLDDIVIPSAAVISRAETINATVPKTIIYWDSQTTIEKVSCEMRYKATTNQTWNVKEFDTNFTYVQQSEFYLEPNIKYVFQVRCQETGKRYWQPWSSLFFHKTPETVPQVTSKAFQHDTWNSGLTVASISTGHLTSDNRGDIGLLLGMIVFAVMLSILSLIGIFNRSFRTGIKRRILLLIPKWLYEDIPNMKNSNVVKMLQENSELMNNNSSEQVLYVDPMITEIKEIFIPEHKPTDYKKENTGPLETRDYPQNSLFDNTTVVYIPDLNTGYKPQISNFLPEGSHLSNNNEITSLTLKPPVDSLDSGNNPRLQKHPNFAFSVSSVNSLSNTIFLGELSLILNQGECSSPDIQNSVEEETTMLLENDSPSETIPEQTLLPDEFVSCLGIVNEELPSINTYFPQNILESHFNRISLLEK
assay.details: cell-based or functional assay
*1 amine or outer side, *2 acyl side, *3 side chain or, on linkers, in order; H or OH if unused. Bridges are numbered along the chain shown (N, C = ends). Primed or numbered codes have the meaning given here. [ ]: non-standard residue; d: D form. 4‑Aminomethyl‑phenylacetyl = 4-aminomethyl-phenylacetyl unit, its amine closes the lactam, O=C(Cc1ccc(CN[*:1])cc1)[*:2]; 1,3‑dibromopropan‑2‑one = linker (CAS 816-39-7) joining two Cys as 1,3-dithio-propan-2-one bridge -SCH2C(=O)CH2S-; 1,3‑dibromopropan‑2‑one(3) = linker giving 1,3-dithio-propan-2-one bridge -SCH2C(=O)CH2S- between Cys; 2Nal = N[C@@H](Cc1ccc2ccccc2c1)C(=O)O; AEF = NCCOc1ccc(C[C@H](N)C(=O)O)cc1; αMeR = C[C@](N)(CCCNC(=N)N)C(=O)O; αMeL = CC(C)C[C@](C)(N)C(=O)O; CH2COCH2 = O=C(C[*:1])C[*:2]; αMeV = CC(C)[C@](C)(N)C(=O)O; 3Amb = NCc1cccc(C(=O)O)c1; dDab = NCC[C@@H](N)C(=O)O; Dab = NCC[C@H](N)C(=O)O
Hi! Could you tag entries with IC50 (pSTAT3) below 20 nM as Criterion met, and those at or above as Criterion not met? Much appreciated.

(Q) Decide: IC50 (pSTAT3) of [4‑Aminomethyl‑phenylacetyl]SCWQC[AEF][2Nal][αMeL]E[dDab]((2-(trimethyl-2-aminoethoxy)ethoxy)propyl)-NH2 (lactam N-10; linker 3-6 via 1,3‑dibromopropan‑2‑one(3)) [Compound 109] strictly below 20 nM?
(A) Criterion not met

(Q) Decide: IC50 (pSTAT3) of [3Amb]SCWQC[AEF][2Nal][αMeL]E[αMeR]-NH2 (lactam N-10; linker 3-6 via CH2COCH2; SMILES CC(C)C[C@]1(C)NC(=O)[C@H](Cc2ccc3ccccc3c2)NC(=O)[C@H](Cc2ccc(OCCN)cc2)NC(=O)[C@@H]2CSCC(=O)CSC[C@H](NC(=O)[C@H](CO)NC(=O)c3cccc(c3)CNC(=O)CC[C@@H](C(=O)N[C@@](C)(CCCNC(=N)N)C(N)=O)NC1=O)C(=O)N[C@@H](Cc1c[nH]c3ccccc13)C(=O)N[C@@H](CCC(N)=O)C(=O)N2) [Compound 42] strictly below 20 nM?
(A) Criterion not met

(Q) Decide: IC50 (pSTAT3) of Ac-KTCWQC[AEF][2Nal][αMeL]E[dR]-NH2 (lactam 1-10; linker 3-6 via CH2COCH2; SMILES CC(=O)N[C@H]1CCCCNC(=O)CC[C@@H](C(=O)N[C@H](CCCNC(=N)N)C(N)=O)NC(=O)[C@](C)(CC(C)C)NC(=O)[C@H](Cc2ccc3ccccc3c2)NC(=O)[C@H](Cc2ccc(OCCN)cc2)NC(=O)[C@@H]2CSCC(=O)CSC[C@H](NC(=O)[C@H]([C@@H](C)O)NC1=O)C(=O)N[C@@H](Cc1c[nH]c3ccccc13)C(=O)N[C@@H](CCC(N)=O)C(=O)N2) [Compound 85] strictly below 20 nM?
(A) Criterion met

(Q) Decide: IC50 (pSTAT3) of [4‑Aminomethyl‑phenylacetyl]SEWQ[Dab][AEF][2Nal][αMeV]E[Dab]-NH2 (lactam N-10, 3-6; SMILES CC(C)[C@]1(C)NC(=O)[C@H](Cc2ccc3ccccc3c2)NC(=O)[C@H](Cc2ccc(OCCN)cc2)NC(=O)[C@@H]2CCNC(=O)CC[C@H](NC(=O)[C@H](CO)NC(=O)Cc3ccc(cc3)CNC(=O)CC[C@@H](C(=O)N[C@@H](CCN)C(N)=O)NC1=O)C(=O)N[C@@H](Cc1c[nH]c3ccccc13)C(=O)N[C@@H](CCC(N)=O)C(=O)N2) [Compound 136] strictly below 20 nM?
(A) Criterion met

(Q) Decide: IC50 (pSTAT3) of H-DESCWQCWWLKR-NH2 (lactam 2-11; linker 4-7 via 1,3‑dibromopropan‑2‑one) [Compound 4] strictly below 20 nM?
(A) Criterion not met

Note: attention shifts to another entry.
(Q) Decide: IC50 (pSTAT3) of [3‑(4-Aminophenyl)propanoyl]SCWQC[AEF][2Nal][αMeL]ER-NH2 (lactam N-10; linker 3-6 via CH2COCH2) [Compound 51] strictly below 20 nM?
(A) Criterion not met
